Target: T1, Pfu-Pol wild type (family-B DNA polymerase) (Pyrococcus furiosus, UniProt P61875 1-775)
T1 sequence: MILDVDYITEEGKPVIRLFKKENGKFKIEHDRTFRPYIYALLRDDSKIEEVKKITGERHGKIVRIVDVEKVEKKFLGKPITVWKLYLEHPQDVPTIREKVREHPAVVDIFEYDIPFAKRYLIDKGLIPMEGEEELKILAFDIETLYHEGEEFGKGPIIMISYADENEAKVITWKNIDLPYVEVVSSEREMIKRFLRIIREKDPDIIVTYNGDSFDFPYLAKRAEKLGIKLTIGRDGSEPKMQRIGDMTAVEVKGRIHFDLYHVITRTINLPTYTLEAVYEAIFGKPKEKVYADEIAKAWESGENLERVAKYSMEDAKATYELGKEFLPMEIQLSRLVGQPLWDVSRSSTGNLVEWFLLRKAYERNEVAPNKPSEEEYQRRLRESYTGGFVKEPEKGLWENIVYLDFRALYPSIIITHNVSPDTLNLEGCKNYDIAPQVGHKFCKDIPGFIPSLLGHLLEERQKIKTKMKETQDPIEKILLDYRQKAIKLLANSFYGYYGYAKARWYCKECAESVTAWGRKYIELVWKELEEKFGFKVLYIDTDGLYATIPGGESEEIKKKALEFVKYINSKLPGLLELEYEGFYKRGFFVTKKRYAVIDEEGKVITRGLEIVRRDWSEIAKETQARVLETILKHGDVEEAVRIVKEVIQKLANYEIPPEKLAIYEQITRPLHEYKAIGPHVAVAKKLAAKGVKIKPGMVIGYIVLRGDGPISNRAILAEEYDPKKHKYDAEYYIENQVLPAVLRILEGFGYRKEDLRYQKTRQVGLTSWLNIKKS
Assay: fluorescence anisotropy; 20 mM Tris-HCl pH 8.5, 10 mM KCl, 10 mM (NH4)2SO4 (ionic strength 40); 10 nM Hex primer-template; rest of buffer and temperature not in material
Details: protein: recombinant; label: 5'-hexachlorofluorescein on primer (strand 1); 5' overhang 20 nt on template (strand 2)

- BINDER: "Hex primer-template (24/44) (dsDNA) DNA 1: GGGGATCCTCTAGAGTCGACCTGC DNA 2: GGAGACAAGCTTGCTTGCCAGCAGGTCGACTCTAGAGGATCCCC"
  UNIT_INFO: "nM"
  Kd: 251
